Reported composite z-score by item:
# assayed system: Focal adhesion kinase 1 (Homo sapiens) (UniProt Q05397)
# Sequence (Q05397 whole entry, looked up): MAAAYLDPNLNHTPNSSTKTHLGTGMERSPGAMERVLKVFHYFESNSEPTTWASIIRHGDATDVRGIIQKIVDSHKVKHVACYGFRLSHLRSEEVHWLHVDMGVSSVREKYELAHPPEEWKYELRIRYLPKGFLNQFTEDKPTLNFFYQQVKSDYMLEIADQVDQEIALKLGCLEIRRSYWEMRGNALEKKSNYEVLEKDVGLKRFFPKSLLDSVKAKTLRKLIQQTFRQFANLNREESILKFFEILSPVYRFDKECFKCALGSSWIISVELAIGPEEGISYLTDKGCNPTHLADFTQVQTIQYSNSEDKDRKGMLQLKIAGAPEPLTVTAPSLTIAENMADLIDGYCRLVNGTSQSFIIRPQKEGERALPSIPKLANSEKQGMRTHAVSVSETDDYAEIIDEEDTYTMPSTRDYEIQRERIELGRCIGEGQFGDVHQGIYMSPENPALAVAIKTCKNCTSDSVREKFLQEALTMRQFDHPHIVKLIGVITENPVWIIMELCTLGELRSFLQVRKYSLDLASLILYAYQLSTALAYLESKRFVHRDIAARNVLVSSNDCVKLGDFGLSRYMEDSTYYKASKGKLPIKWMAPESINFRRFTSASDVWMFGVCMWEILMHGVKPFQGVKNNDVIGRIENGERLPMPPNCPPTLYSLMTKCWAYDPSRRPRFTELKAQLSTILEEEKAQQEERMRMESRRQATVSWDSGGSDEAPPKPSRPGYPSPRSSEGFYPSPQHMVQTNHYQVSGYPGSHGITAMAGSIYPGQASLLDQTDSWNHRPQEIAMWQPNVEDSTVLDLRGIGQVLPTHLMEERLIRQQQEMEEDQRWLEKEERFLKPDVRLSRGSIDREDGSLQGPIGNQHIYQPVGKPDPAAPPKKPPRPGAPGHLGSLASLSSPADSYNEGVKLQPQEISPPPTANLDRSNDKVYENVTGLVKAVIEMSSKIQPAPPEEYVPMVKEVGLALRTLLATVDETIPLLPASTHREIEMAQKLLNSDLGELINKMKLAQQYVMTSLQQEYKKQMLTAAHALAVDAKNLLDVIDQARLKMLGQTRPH
# test details: small-molecule microarray binders of FAK, primary screen, biochemical, 635/667 nm fluorescence, BSA, DTT (AID 1130);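 note: composite of spot emission at 667 nm and signal to noise over triplicate slides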
# condition label: PTK2 binding, 635 nm fluorescence, higher = more signal
Format: numeric value only, no unit, no commentary.

Use these answered entries as a reference point.
[[record]]
compound = "C[N+](C)(C)CCCC[C@@H]1NC(=O)[C@H]2C[C@@H](C(=O)NCCCCCN)[C@@H](c3ccc(O)cc3)N2C1=O"
experimental_readout = "composite z-score"
number = 0.599

[[record]]
compound = "COc1cccc(C)c1NC(=O)O[C@H]1[C@H](OC(=O)Nc2ccccc2-c2ccccc2)[C@@H](OC(=O)Nc2ccccc2-c2ccccc2)[C@@H](OC)O[C@@H]1CO"
experimental_readout = "composite z-score"
number = 1.29


input: Please provide the recorded composite z-score for CN(C)CCCCCCNC(=O)[C@@H]1C[C@@H]2C(=O)N[C@@H](CCCC[N+](C)(C)C)C(=O)N2[C@@H]1c1cccc(OCCO)c1 , tested on Focal adhesion kinase 1 (Homo sapiens) (UniProt Q05397).
output: -0.159

input: // next record CN1C(=O)C2C=CC(C(O)c3cccs3)N(N(c3ccccc3)c3ccccc3)C2C1=O (configuration not stated)
output: 0.663

input: // next record CC(C)C(=C=CC[C@H](O)c1cccc(OCCO)c1)C[C@H](O)c1ccccn1
output: 0.0358

input: // next record CC(C)N1CC=CC23O[C@@H]4/C=C\CCCOC(=O)C4[C@H]2C(=O)N(C(C)CO)[C@@H]3C1=O (some centres not stated)
output: -0.246

input: // next record O=C1N(Cc2ccccc2)c2ccccc2C[C@@]12N=C(c1ccc(OCCCO)cc1)O[C@H]2c1ccccc1
output: 0.791

input: // next record O=C1NC(=O)C2C1C=CC(C(O)C(O)CO)N2Nc1ccccn1 (configuration not stated)
output: -0.201

input: // next record C=CC[C@H](O)c1ccc(O)c2ccccc12
output: 0.126

input: // next record [N-]=[N+]=NCc1ccccc1[C@H]1OC(c2ccc(OCCCO)cc2)=N[C@@]1(CCS(=O)(=O)c1ccccc1)C(=O)NCCN1CCOCC1
output: 0.907

input: // next record CC(C)N1C(=O)[C@@]2(Cc3ccccc31)c1ccccc1C(=O)N(Cc1ccccc1)[C@H]2c1ccc(CO)cc1
output: -0.0689

input: // next record CC[C@@H](O[Si](C#C[Si](C(C)C)(C(C)C)C(C)C)(C(C)C)C(C)C)c1cn([C@H](CO)Cc2ccccc2)nn1
output: 0.324
